# key: entry, value: response
- SYSTEM_TESTED: Mab2-5G2, monoclonal anti-idiotypic antibody recognizing an antibody that specifically interacts with PRRSV glycoprotein 5 (GP5)
- PROCEDURE_SUMMARY: ELISA
- CONDITION_DESCRIPTION: chain shown with the change; Mab2-5G2 as plate-coating protein; anti-PRA rabbit serum for detection; parent: est. 1.6; read off a plot
Only the number, expressed in OD450, is required.

[
  {
    "BINDER": "PRA, C-terminal domain of MYH9 (recombinant, wild type) E1670A (protein) MRELEDTRASREEILAQAKANEKKLKSMEAEMIQLQEELAAAERAKRQAQQERDELADEIANSSGKGALALEEKRRLEARIAQLEEELEEEQGNTELVNDRLKKANLQIDQINTDLNLERSHAQKNENARQQLERQNKELKVKLQEMEGTVKSKYKASIAALEAKIAQLEEQLDNETKERQAACKQVRRAEKKLKDVLLQVDDERRNAEQYKDQADKASTRLKQLKRQLEEAEEEAQRANASRRKLQRELEDATETADAMNREVSSLKNKLRRGDLPFVVPRRMGRKGAGDCSDEEVDGKADGAEAKAAE",
    "response (OD450)": 0.46
  }
]

Here's the next entry for you.
Value of response reported for the binder PRA, C-terminal domain of MYH9 (recombinant, wild type) I1683A (protein) MRELEDTRASREEILAQAKENEKKLKSMEAEMAQLQEELAAAERAKRQAQQERDELADEIANSSGKGALALEEKRRLEARIAQLEEELEEEQGNTELVNDRLKKANLQIDQINTDLNLERSHAQKNENARQQLERQNKELKVKLQEMEGTVKSKYKASIAALEAKIAQLEEQLDNETKERQAACKQVRRAEKKLKDVLLQVDDERRNAEQYKDQADKASTRLKQLKRQLEEAEEEAQRANASRRKLQRELEDATETADAMNREVSSLKNKLRRGDLPFVVPRRMGRKGAGDCSDEEVDGKADGAEAKAAE is 0.61
